method_summary: AUC in SCID mouse at 300 mg/kg, po qd for 1 to 3 days
Type: ADME, organism-based
Parameters: dose 300 mg/kg, route oral
test_parameters: plasma
measurement_kind: AUC

Asked: Look at this compound and give its reported AUC. COCC(=O)N1CCN(C(=O)[C@H]2CC[C@H](Cn3c(=O)c4cc(OC)ccc4n(C)c3=O)CC2)CC1
Given back: 193 µM·h

###

method_summary: Cmax in SCID mouse at 300 mg/kg, po qd for 1 to 3 days
Assay type: ADME, organism-based
Parameters: dose 300 mg/kg, route oral
test_parameters: in vivo
measurement_kind: Cmax (µM)
Numbers only, in µM.

Asked: Suppose we examine the molecule COCC(=O)N1CCN(C(=O)[C@H]2CC[C@H](Cn3c(=O)c4cc(OC)ccc4n(C)c3=O)CC2)CC1 ; what Cmax value has been reported?
Given back: 35

###

method_summary: Half life in CD1 mouse at 5 mg/kg, po
Format: ADME, organism-based
Parameters: dose 5 mg/kg, route oral
test_parameters: in vivo
measurement_kind: half-life (h)
Answers are plain numbers, in h.

Asked: half-life lookup needed for COCC(=O)N1CCN(C(=O)[C@H]2CC[C@H](Cn3c(=O)c4cc(OC)ccc4n(C)c3=O)CC2)CC1 , thanks.
Given back: 2.2

###

method_summary: Intrinsic clearance in male mouse liver microsomes at 1 uM by UPLC/TOF-MS analysis
Assay type: ADME
test_parameters: read-out: CLH
Friendly reminder: microsomal CLint at 1 µM below 40 µL/min/mg is class 1, at or above is class 0.

# count of solved cases: 5
| substance_smiles | label_class |
| --- | --- |
| COc1ccc2c(c1)c(=O)n(C[C@H]1CC[C@H](C(=O)N3CCN(C(C)=O)CC3)CC1)c(=O)n2C | class 1 |
| COc1ccc2[nH]c(=O)n(C[C@H]3CC[C@H](C(=O)N4CCN(C(C)=O)CC4)CC3)c(=O)c2c1 | class 0 |
| COc1ccc2[nH]c(=O)n(C[C@H]3CC[C@H](C(=O)N4CCN(C(=O)C5CC5)CC4)CC3)c(=O)c2c1 | class 0 |
| COc1ccc2c(c1)c(=O)n(C[C@H]1CC[C@H](C(=O)N3CCN(C(=O)C4CC4)CC3)CC1)c(=O)n2C | class 0 |
| COCC(=O)N1CCN(C(=O)[C@H]2CC[C@H](Cn3c(=O)[nH]c4ccc(OC)cc4c3=O)CC2)CC1 | class 1 |

Asked: Could you please tell me whether microsomal CLint at 1 µM recorded for COCC(=O)N1CCN(C(=O)[C@H]2CC[C@H](Cn3c(=O)c4cc(OC)ccc4n(C)c3=O)CC2)CC1 is less than 40 µL/min/mg?
Given back: class 1

###

For each of the compounds below, state its remaining at 3 h, 10 µM.
method_summary: Metabolic stability in mouse plasma assessed as compound remaining measured at 10 uM after 3 hrs by LC-MS/MS analysis
Format: ADME, cell-free
test_parameters: read-out: Stability
One number for each entry, in %.

Worked cases, remaining at 3 h, 10 µM given:
| substance_smiles | remaining at 3 h, 10 µM [%] |
| --- | --- |
| COCC(=O)N1CCN(C(=O)[C@H]2CC[C@H](Cn3c(=O)[nH]c4ccc(OC)cc4c3=O)CC2)CC1 | 74 |
| COc1ccc2[nH]c(=O)n(C[C@H]3CC[C@H](C(=O)N4CCN(C(=O)C5CC5)CC4)CC3)c(=O)c2c1 | 78 |
| COCC(=O)N1CCN(C(=O)[C@H]2CC[C@H](Cn3c(=O)c4cc(OC)ccc4n(C)c3=O)CC2)CC1 | 95 |
| COc1ccc2[nH]c(=O)n(C[C@H]3CC[C@H](C(=O)N4CCN(C(C)=O)CC4)CC3)c(=O)c2c1 | 100 |
| COc1ccc2c(c1)c(=O)n(C[C@H]1CC[C@H](C(=O)N3CCN(C(=O)C4CC4)CC3)CC1)c(=O)n2C | 98 |

Please look at the following compound next.
Asked: // lookup remaining at 3 h, 10 µM for COc1ccc2c(c1)c(=O)n(C[C@H]1CC[C@H](C(=O)N3CCN(C(C)=O)CC3)CC1)c(=O)n2C
Given back: 100

###

method_summary: Tmax in SCID mouse at 300 mg/kg, po qd for 1 to 3 days
Format: ADME, organism-based
Set-up: dose 300 mg/kg, route oral
test_parameters: in vivo
measurement_kind: Tmax (h)
Numbers only, in h.

Asked: Which Tmax is listed for COCC(=O)N1CCN(C(=O)[C@H]2CC[C@H](Cn3c(=O)c4cc(OC)ccc4n(C)c3=O)CC2)CC1 ?
Given back: 1

###

method_summary: Cmax in CD1 mouse at 5 mg/kg, po
Assay type: ADME, organism-based
Design: dose 5 mg/kg, route oral
test_parameters: in vivo
measurement_kind: Cmax (nM)
Give bare numbers, in nM.

Asked: Look up Cmax for this compound: COCC(=O)N1CCN(C(=O)[C@H]2CC[C@H](Cn3c(=O)c4cc(OC)ccc4n(C)c3=O)CC2)CC1
Given back: 1300

###

method_summary: AUC in SCID mouse at 100 mg/kg, po qd for 14 days
Type: ADME, organism-based
Design: dose 100 mg/kg, route oral
test_parameters: plasma
measurement_kind: AUC at 336 h (µM·h)
Give bare numbers, in µM·h.

Asked: Recorded AUC at 336 h for COCC(=O)N1CCN(C(=O)[C@H]2CC[C@H](Cn3c(=O)c4cc(OC)ccc4n(C)c3=O)CC2)CC1 , please?
Given back: 113

###

method_summary: Half life in SCID mouse at 100 mg/kg, po qd for 1 to 7 days and 14 to 21 days
Type: ADME, organism-based
Set-up: dose 100 mg/kg, route oral
test_parameters: in vivo
measurement_kind: half-life (h)
Numbers only, in h.

Asked: Requested field: half-life. Item: COCC(=O)N1CCN(C(=O)[C@H]2CC[C@H](Cn3c(=O)c4cc(OC)ccc4n(C)c3=O)CC2)CC1
Given back: 1.6

###

method_summary: Ratio of drug level in brain to plasma in CD1 mouse at 5 mg/kg, po
Assay type: ADME, organism-based
Set-up: dose 5 mg/kg, route oral
test_parameters: read-out: BPR
measurement_kind: Kp
Answers are plain numbers.

Asked: # input compound: COCC(=O)N1CCN(C(=O)[C@H]2CC[C@H](Cn3c(=O)c4cc(OC)ccc4n(C)c3=O)CC2)CC1 ; wanted: its Kp
Given back: 0.03

###

method_summary: Tmax in SCID mouse at 100 mg/kg, po qd for 14 days
Type: ADME, organism-based
Design: dose 100 mg/kg, route oral
test_parameters: in vivo
measurement_kind: Tmax (min)
Give bare numbers, in min.

Asked: Which Tmax value belongs to COCC(=O)N1CCN(C(=O)[C@H]2CC[C@H](Cn3c(=O)c4cc(OC)ccc4n(C)c3=O)CC2)CC1 ?
Given back: 30

###

method_summary: AUC in SCID mouse at 100 mg/kg, po qd for 1 to 7 days and 14 to 21 days
Assay type: ADME, organism-based
Parameters: dose 100 mg/kg, route oral
test_parameters: plasma
measurement_kind: AUC (µM·h)
Give bare numbers, in µM·h.

Asked: Could you share which AUC value was measured for COCC(=O)N1CCN(C(=O)[C@H]2CC[C@H](Cn3c(=O)c4cc(OC)ccc4n(C)c3=O)CC2)CC1 ?
Given back: 101

###

method_summary: Half life in SCID mouse at 100 mg/kg, po qd for 14 days
Assay type: ADME, organism-based
Set-up: dose 100 mg/kg, route oral
test_parameters: in vivo
measurement_kind: half-life (h)
Numbers only, in h.

Asked: What measured half-life goes with COCC(=O)N1CCN(C(=O)[C@H]2CC[C@H](Cn3c(=O)c4cc(OC)ccc4n(C)c3=O)CC2)CC1 ?
Given back: 2.2

###

method_summary: Cmax in SCID mouse at 100 mg/kg, po qd for 1 to 7 days and 14 to 21 days
Assay type: ADME, organism-based
Parameters: dose 100 mg/kg, route oral
test_parameters: in vivo
measurement_kind: Cmax (µM)
One number for each entry, in µM.

Asked: I'd like to know its Cmax. The compound in question is COCC(=O)N1CCN(C(=O)[C@H]2CC[C@H](Cn3c(=O)c4cc(OC)ccc4n(C)c3=O)CC2)CC1
Given back: 22

###

method_summary: Tmax in SCID mouse at 100 mg/kg, po qd for 1 to 7 days and 14 to 21 days
Type: ADME, organism-based
Set-up: dose 100 mg/kg, route oral
test_parameters: in vivo
measurement_kind: Tmax (min)
Numbers only, in min.

Asked: Record request: Tmax value, item COCC(=O)N1CCN(C(=O)[C@H]2CC[C@H](Cn3c(=O)c4cc(OC)ccc4n(C)c3=O)CC2)CC1
Given back: 30

Hello, the source for this data is ChEMBL document CHEMBL3421631, in case you need it.
